# reported IC50; entries follow
test-target: human Npt2a (Homo sapiens)
Sequence (Q06495 whole entry): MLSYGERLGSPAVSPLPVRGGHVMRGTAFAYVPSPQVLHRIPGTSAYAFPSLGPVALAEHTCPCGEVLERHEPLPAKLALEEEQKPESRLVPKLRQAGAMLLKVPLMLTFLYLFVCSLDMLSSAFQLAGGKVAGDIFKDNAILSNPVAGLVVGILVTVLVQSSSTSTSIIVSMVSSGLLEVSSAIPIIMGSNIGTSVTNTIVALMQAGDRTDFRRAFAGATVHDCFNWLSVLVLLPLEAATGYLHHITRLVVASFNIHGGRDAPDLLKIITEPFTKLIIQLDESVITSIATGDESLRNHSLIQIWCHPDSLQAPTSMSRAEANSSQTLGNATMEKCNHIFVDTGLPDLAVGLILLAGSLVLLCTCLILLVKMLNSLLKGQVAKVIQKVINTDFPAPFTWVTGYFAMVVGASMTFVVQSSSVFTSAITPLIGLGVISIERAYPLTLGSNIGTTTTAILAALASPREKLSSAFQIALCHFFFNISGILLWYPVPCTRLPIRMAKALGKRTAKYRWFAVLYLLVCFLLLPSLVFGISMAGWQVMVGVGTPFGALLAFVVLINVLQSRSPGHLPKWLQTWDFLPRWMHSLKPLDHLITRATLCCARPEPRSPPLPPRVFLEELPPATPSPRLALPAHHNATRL
experiment-summary: Npt2a activity cell based assay, membrane potential dye, CHO T-REx hNpt2a cells
measurement-parameters: doxycycline-induced, depolarization by sodium phosphate influx, average or median values if tested more than once
Procedure: For measuring Npt2a activity in a cell based assay, a stable CHO cell line with inducible Npt2a expression was generated. […] Activity of Npt2a was detected by following depolarization of cellular membrane potential by influx of sodium phosphate using fluorescent membrane potential dye kit BLUE (Molecular devices cat. R8034). […] Plates were analyzed with an in house CCD camera device using a λexc 510-545 nm/λem 565-625 nm filter. Fluorescence was detected for 15 sec (background measurement M1). […]
// note: answer is a bare numeric in nM

// field: IC50; key: Cc1nn(-c2cc(Nc3nn(C)c(-c4ccc(F)cc4)c3C)ncn2)c(C)c1C#N [Example 348] ; value = 15

Lab note: CNc1ccc(-c2nn(CCOC)c(Nc3cc(-n4nc(C)c(Cl)c4C)ncn3)c2C)cc1 [Example 521] gave IC50 of 8

Sure, the documented IC50 for CCc1c(Nc2cc(-n3nc(C)c(C(=O)N(C)C)c3C)ncn2)nn(C)c1-c1ccc(F)cc1 [Example 127] is 1200

response.value for COCCn1nc(-c2ccc(C#N)cc2)c(C)c1Nc1cc(-n2nc(C)cc2C(F)F)ncn1 [Example 554] (field: IC50) = 1.9

molecule CCc1c(-c2ccc(F)cc2)n[nH]c1Nc1cc(-n2nc(C)cc2C)ncn1 [Example 13] , IC50 observed: 61.9

Recorded IC50 (molecule CCOC(=O)c1cc(C)nn1-c1cc(Nc2nn(C)c(-c3ccc(F)cc3)c2Cl)ncn1 [Example 447] ): 560

// IC50 value for CCOC(=O)c1c(C)nn(-c2cc(Nc3c(C)c(-c4ccc(C(F)F)cc4)nn3CC3CC3)ncn2)c1C [Example 454] : 11

The value of IC50 measured for the molecule CCc1c(Nc2cc(-n3cc4c(n3)CCC4)ncn2)n[nH]c1-c1ccc(F)cc1 [Example 20] turned out to be 120
